B1: library; a variant is named by its letters at N, in order (parent)
chain: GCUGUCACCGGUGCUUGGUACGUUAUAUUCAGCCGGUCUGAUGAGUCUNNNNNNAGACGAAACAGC

Variants of: B1
Assay Explanation: FACS-Seq fitted mean relative fluorescence mCherry/BFP with ligand (log10 relative fluorescence); HEK293T overexpressing SLC46A1; ligand concentration (+) FACS-Seq: 6 mM; higher = higher reporter protein expression
Conditions: with (6R,S)-folinic acid; ligand present: yes
Each entry belongs to exactly one class, chosen by where its FACS-Seq fitted mean (log10) falls: band 1 (below 0.3), band 2 (0.3 to below 0.5), band 3 (0.5 or more)

Sequence Content | Cat
GCUGUCACCGGUGCUUGGUACGUUAUAUUCAGCCGGUCUGAUGAGUCUUAUUUGAGACGAAACAGC [UAUUUG] | band 2
GCUGUCACCGGUGCUUGGUACGUUAUAUUCAGCCGGUCUGAUGAGUCUGAAAAGAGACGAAACAGC [GAAAAG] | band 1
GCUGUCACCGGUGCUUGGUACGUUAUAUUCAGCCGGUCUGAUGAGUCUUGUAUGAGACGAAACAGC [UGUAUG] | band 1
GCUGUCACCGGUGCUUGGUACGUUAUAUUCAGCCGGUCUGAUGAGUCUUAGACAAGACGAAACAGC [UAGACA] | band 2
GCUGUCACCGGUGCUUGGUACGUUAUAUUCAGCCGGUCUGAUGAGUCUGAUGUAAGACGAAACAGC [GAUGUA] | band 2
GCUGUCACCGGUGCUUGGUACGUUAUAUUCAGCCGGUCUGAUGAGUCUAGGAAUAGACGAAACAGC [AGGAAU] | band 1
GCUGUCACCGGUGCUUGGUACGUUAUAUUCAGCCGGUCUGAUGAGUCUAUCAGUAGACGAAACAGC [AUCAGU] | band 1
GCUGUCACCGGUGCUUGGUACGUUAUAUUCAGCCGGUCUGAUGAGUCUAUAGGCAGACGAAACAGC [AUAGGC] | band 3
GCUGUCACCGGUGCUUGGUACGUUAUAUUCAGCCGGUCUGAUGAGUCUUGAUGGAGACGAAACAGC [UGAUGG] | band 3
